Where do the numbers come from? From ChEMBL document CHEMBL1770117.

target or system: Metabotropic glutamate receptor 5 (Homo sapiens)
assay notes: Positive allosteric modulator activity at mGluR5 receptor expressed in HEK293A cells assessed as maximum glutamate-induced response preincubated for 140 secs before glutamate challenge by calcium fluorescence assay
Format: functional, cell-based
experimental setup: HEK293-A
Overview of reported Activity across a group of molecules:
Give just the numeric value; % need not be written.

// below: answered molecules
In [3]: df
Out[3]:
                                   molecule                          target_or_system  parameter  result_unit  quantitative_result
0  O=C(C1CCC1)N1CCC[C@H]1c1nc(-c2cccc(F)c2)no1  Metabotropic glutamate receptor 5 (Homo sapiens)   Activity            %                 57.3
1  O=C(c1cccc(F)c1)N1CCCC1c1nc(-c2cccc(F)c2)no1 (centres undefined)  Metabotropic glutamate receptor 5 (Homo sapiens)   Activity            %                   47

Query: Sample O=C(C1CC1)N1CCCC1c1nc(-c2cccc(F)c2)no1 (centres undefined) — what was its Activity?
Reply: 68

Query: Next: O=C(C1CCC1)N1CCCC[C@@H]1c1nc(-c2cccc(F)c2)no1 (stereo in doubt; 22b)
Reply: 38

Query: Next: O=C(C1CCC1)N1CCCC1c1nc(-c2cccc(F)c2)no1 (stereo in doubt; 24b)
Reply: 63
